Experiment: Aqueous solubility of Formula (1) free base as a function of pH
Format: physicochemical
Settings: aqueous buffer solutions, aqueous buffer, thermodynamic from solid; pH 6.7 and greater; read-out: aqueous solubility, constant level
metric: solubility

INSERT INTO results (chem_smiles, metric, endpoint_value) VALUES
  ('CC#CC(=O)N1CCC[C@H]1c1nc(-c2ccc(C(=O)Nc3ccccn3)cc2)c2c(N)nccn12', 'solubility', '~50 µg/mL');

---

Experiment: Solubility of Form I by HPLC in solvents and water-solvent mixtures
Format: physicochemical
Settings: organic solvent or mixture, thermodynamic from solid; ethanol, 5° C.; read-out: Solubility (S, mg/mL)
metric: solubility (mg/mL)

INSERT INTO measurements (molecule, metric, result_units, endpoint_value) VALUES
  ('CC#CC(=O)N1CCC[C@H]1c1nc(-c2ccc(C(=O)Nc3ccccn3)cc2)c2c(N)nccn12 [Form I]', 'solubility', 'mg/mL', 3.6);

---

Assay: Solubility of Form I by HPLC in solvents and water-solvent mixtures
Format: physicochemical
Conditions: organic solvent or mixture, thermodynamic from solid; 1-propanol, r.t.; read-out: Solubility (S, mg/mL)
metric: solubility

INSERT INTO assay_data (compound, endpoint_value) VALUES
  ('CC#CC(=O)N1CCC[C@H]1c1nc(-c2ccc(C(=O)Nc3ccccn3)cc2)c2c(N)nccn12 [Form I]', '4.7 mg/mL');

---

Test: Aqueous solubility of salts after three hours equilibration without pH adjustment
Assay type: physicochemical
Settings: thermodynamic from solid, water
metric: solubility at 3 h

INSERT INTO measurements (compound, metric, endpoint_value) VALUES
  ('CC#CC(=O)N1CCC[C@H]1c1nc(-c2ccc(C(=O)Nc3ccccn3)cc2)c2c(N)nccn12 [Formula (1)]', 'solubility at 3 h', '< 1000 µg/mL');

---

Assay: Solubility of Form I by HPLC in solvents and water-solvent mixtures
Format: physicochemical
Conditions: organic solvent or mixture, thermodynamic from solid; methanol, 25° C.; read-out: Solubility (S, mg/mL)
metric: solubility (mg/mL)

INSERT INTO assay_data (compound, metric, endpoint_value) VALUES
  ('CC#CC(=O)N1CCC[C@H]1c1nc(-c2ccc(C(=O)Nc3ccccn3)cc2)c2c(N)nccn12 [Form I]', 'solubility', 19.9);

---

Experiment: Approximate solubility of Form I by stepwise dilution of a suspension
Format: physicochemical
Settings: MEK saturated with water, organic solvent or mixture, thermodynamic from solid; read-out: Solubility [S, mg/mL]
Experimental: Form I was also tested with respect to solubilities in various water-solvent mixtures and non-aqueous solvents. Solubility studies were conducted by a stepwise dilution of a suspension of about 10 mg of Form I in 0.1 mL of analytical grade solvent. Solubility values are estimated approximations and are subject to variable experimental error.
metric: solubility

INSERT INTO results (compound, endpoint_value) VALUES
  ('CC#CC(=O)N1CCC[C@H]1c1nc(-c2ccc(C(=O)Nc3ccccn3)cc2)c2c(N)nccn12 [Form I]', '26 to 30 mg/mL');

---

Experiment: Solubility of Form I by HPLC in solvents and water-solvent mixtures
Type: physicochemical
Details: organic solvent or mixture, thermodynamic from solid; ethanol, 25° C.; read-out: Solubility (S, mg/mL)
metric: solubility (mg/mL)

INSERT INTO results (compound, endpoint_value) VALUES
  ('CC#CC(=O)N1CCC[C@H]1c1nc(-c2ccc(C(=O)Nc3ccccn3)cc2)c2c(N)nccn12 [Form I]', 4.4);
